Conditions: in methanol, 278.15 K
measured_attribute: solubility (mole fraction)

> print(dat)
                             test.smiles          measured.attribute  test.result
1  CN1COCN(Cc2cnc(Cl)s2)C1=N[N+](=O)[O-]  solubility (mole fraction)     0.000628

---

Conditions: in propionic acid, 278.15 K
measured_attribute: solubility (mole fraction)

> print(dat)
                             test.smiles  test.result
1  CN1COCN(Cc2cnc(Cl)s2)C1=N[N+](=O)[O-]     0.000769

---

Settings: in methanol, 308.15 K
measured_attribute: solubility (mole fraction)

> print(dat)
                             test.smiles  test.result
1  CN1COCN(Cc2cnc(Cl)s2)C1=N[N+](=O)[O-]      0.00294
